# assay.remarks: inhibitors of the yeast RAM network, pilot screen, dse1pr::URA3 reporter, 5-FOA selection (AID 869);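 note: 0% = DMSO wells with no growth and 100% = 10 µM 1-NA-PP1 with full growth; RAM network block rescues cells from 5-FOA so hits raise OD615 growth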
# setup.conditions: S. cerevisiae dse1pr::URA3 5-FOA growth, OD615, 2 d; at 10 µM; stronger effect = higher value; strain carries analog-sensitive mutant Cbk1 kinase
Measured inhibition by item

{"molecule": "COC(=O)c1ccc2c(c1)N(C)CCS2", "inhibition, %": 0.22}
{"molecule": "Cc1cnn(C(=O)c2ccccc2Br)c1", "inhibition, %": -0.355}
{"molecule": "CCSCCOC(=O)C1=C(C)NC(=O)NC1c1ccc2c(c1)OCO2 (configuration not stated)", "inhibition, %": 2.05}
{"molecule": "CCC(=O)c1cc2c(cc1NC(=O)c1cccs1)OCCO2", "inhibition, %": 1.38}
{"molecule": "COc1ccc(C2C(C(=O)Nc3cc(C)on3)c3ccccc3C(=O)N2C)cc1OC (configuration not stated)", "inhibition, %": 1.24}
{"molecule": "Cc1cc(C(=O)N2CCN(c3ccccn3)CC2)no1", "inhibition, %": 1.05}
{"molecule": "Nc1nc2n(n1)C(c1ccccc1Cl)CC(c1ccc(F)cc1)N2 (configuration not stated)", "inhibition, %": 2.58}
{"molecule": "O=C(C1CC1)N1CCc2cc(Br)cc(S(=O)(=O)NCCN3CCOCC3)c21", "inhibition, %": 1.69}
{"molecule": "O=C(c1ccco1)c1n[nH]nc1-c1ccccc1", "inhibition, %": 1.16}
{"molecule": "Cc1cc(C)n(C(=O)CCCC(=O)n2nc(C)cc2C)n1", "inhibition, %": 1.19}
{"molecule": "CCOc1cccc2c1OC1(C)CC2NC(=O)N1c1cccc(Cl)c1 (configuration not stated)", "inhibition, %": -0.045}
{"molecule": "O=C(OC1CCCCC1)c1ccc(NC(=O)c2ccco2)cc1", "inhibition, %": 0.87}
